experiment_description: Metabolic stability in rat liver microsomes
Format: in vitro ADME
study_conditions: pH 7.4
measurement_name: half-life at 1 μM

>>> measurement("COc1ccccc1N1CCN(CCc2n[nH]c(=O)n2CC2CCCCC2)CC1")
"≥ 1 h"

For COc1ccccc1N1CCN(CCc2n[nH]c(=O)n2Cc2cccc(F)c2)CC1 the molecule record lists half-life at 1 μM as ≥ 1 h

For COc1ccccc1N1CCN(CCc2n[nH]c(=O)n2Cc2ccccc2)CC1 the molecule record lists half-life at 1 μM as ≥ 1 h

All figures here come from patent US8222254B2.
